Numbers sourced from the supplement of paper PMC4723716.

Recorded viability index, one value per entry.
- Tested on: Plasmodium falciparum NF54 stage V gametocytes
- assay.notes: viability index relative to DMSO control (fraction); higher = less gametocyte killing
- condition.summary: 1.25 µM, incubation time: 72 h
Whole data set: some 3,600 compounds, median “viability index relative to DMSO control” near 0.81, cut for the lowest 2% near 0.13. Shown is part of a subset that was picked to be rich in the lowest values.
Just the number.

Cc1cc(N2CCC(C)CC2)nc2ccc(NC(=O)c3ccc([N+](=O)[O-])o3)cc12 0.12
Cc1cc(N2CCCCC2)nc2ccc(NC(=O)c3cccc([N+](=O)[O-])c3)cc12 0.787
Cc1cccc(-c2nc3cc(NC(=O)c4ccc([N+](=O)[O-])o4)ccc3o2)c1 0.0679

# input for lookup
Record summary for O=C(CN1CCN(C(=O)c2ccccc2)CC1)Nc1ccc(-c2nc3cc(NC(=O)CN4CCN(C(=O)c5ccccc5)CC4)ccc3o2)cc1 : reported viability index = 0.951

---

Recorded viability index, one value per entry.
- System: Plasmodium falciparum NF54 stage V gametocytes
- assay.notes: viability index relative to DMSO control (fraction); higher = less gametocyte killing
- condition.summary: 1.25 µM, incubation time: 72 h
In all, about 3,600 compounds were measured (“viability index relative to DMSO control”: median about 0.81, lowest 2% from about 0.13 on). The entries come from a sample that favours the lowest values as a whole.
Just the number.

Example entries and their recorded answers appear below.
compound	test.target	number
c1ccc(Nc2nc(-c3ccccn3)cs2)nc1	Plasmodium falciparum NF54 stage V gametocytes	0.0653
CCOc1ccc(CCN2C(=S)N(c3cccc(C(F)(F)F)c3)C(=O)C2CC(=O)Nc2ccc(C(=O)OC)cc2)cc1OCC (stereo not given)	Plasmodium falciparum NF54 stage V gametocytes	0.582
Cc1nc2ncccn2c1-c1csc(Nc2ccccn2)n1	Plasmodium falciparum NF54 stage V gametocytes	1.06
COc1ccc2nc(Nc3nc(-c4ccccn4)cs3)sc2c1	Plasmodium falciparum NF54 stage V gametocytes	0.331

Record summary for Cc1ccnc(Nc2nc(-c3ccccn3)cs2)c1 : reported viability index = 0.0192

---

- System: Plasmodium falciparum NF54 stage V gametocytes
- assay.notes: viability index relative to DMSO control (fraction); higher = less gametocyte killing
- condition.summary: 1.25 µM, incubation time: 72 h
The full ranking holds about 3,600 compounds; the median of “viability index relative to DMSO control” is about 0.81, and the lowest 2% start at about 0.13. Many of the other results were omitted from the sample, so the lowest values are more common in it than they were.
property.label: viability index
Just the number.

Example entries and their recorded answers appear below.
compound	number
O=C(Nc1ccc(O)cc1)c1cccc(S(=O)(=O)N2CCCCC2)c1	1.03
O=C(O)CCNc1ccccc1[N+](=O)[O-]	0.971
O=C1C=C(Nc2cccc(C(F)(F)F)c2)C(=O)c2ccccc21	0.0673
O=C(Nc1ccc2oc(-c3cccc4ccccc34)nc2c1)c1ccc([N+](=O)[O-])o1	0.0679
FC(F)(F)c1ccc(Nc2nnnc3ccccc23)cc1	1.04

Summary line: COC1=C(Nc2cccc(C(F)(F)F)c2)C(=O)c2ccccc2C1=O , Plasmodium falciparum NF54 stage V gametocytes, reported viability index = 0.606

Summary line: c1ccc2nc3c(nnc4ccccc43)nc2c1 , Plasmodium falciparum NF54 stage V gametocytes, reported viability index = 0.092

Summary line: O=C(Nc1ccc(-c2nnc(-c3ccc(NC(=O)c4ccccc4[N+](=O)[O-])cc3)o2)cc1)c1ccccc1[N+](=O)[O-] , Plasmodium falciparum NF54 stage V gametocytes, reported viability index = 0.756

Summary line: O=C(Nc1ccc2oc(-c3ccccc3F)nc2c1)c1ccc([N+](=O)[O-])o1 , Plasmodium falciparum NF54 stage V gametocytes, reported viability index = 0.128

Summary line: CCC(=O)NC(c1ccccc1Cl)c1cc(Cl)c2cccnc2c1O (stereo not given) , Plasmodium falciparum NF54 stage V gametocytes, reported viability index = 0.86

---

- System: Plasmodium falciparum NF54 stage V gametocytes
- assay.notes: viability index relative to DMSO control (fraction); higher = less gametocyte killing
- condition.summary: 1.25 µM, incubation time: 72 h
Over roughly 3,600 compounds, “viability index relative to DMSO control” has its median near 0.81; the lowest 2% begin near 0.13. The sample as a whole holds a higher share of the lowest values than the screen did.
Recorded viability index, one value per entry.
Just the number.

compound	test.target	property.label	number
O=C(c1ccccc1)N1CCc2nc(Cc3ccc(F)cc3Cl)sc2C1	Plasmodium falciparum NF54 stage V gametocytes	viability index	0.708
CC(=O)N(Cc1ccc(F)cc1)C1=C(NCCc2ccccc2)C(=O)c2ccccc2C1=O	Plasmodium falciparum NF54 stage V gametocytes	viability index	0.0184
O=C(C[n+]1cc(-c2ccc(F)cc2)n2c1CCC2)Nc1ccc(Cl)cc1	Plasmodium falciparum NF54 stage V gametocytes	viability index	1.44

Summary line: Cc1nc2c(C)cccc2c(O)c1CC=C(Cl)Cl , Plasmodium falciparum NF54 stage V gametocytes, reported viability index = 0.759

Summary line: Cc1ccc(CN2C(=O)C(O)(CC(=O)c3ccccc3)c3ccccc32)cc1 (stereo not given) , Plasmodium falciparum NF54 stage V gametocytes, reported viability index = 0.914

---

- Test system: Plasmodium falciparum NF54 stage V gametocytes
- assay.notes: viability index relative to DMSO control (fraction); higher = less gametocyte killing
- condition.summary: 1.25 µM, incubation time: 72 h
The full ranking holds about 3,600 compounds; the median of “viability index relative to DMSO control” is about 0.81, and the lowest 2% start at about 0.13. This excerpt belongs to a sample that is enriched for the lowest values.
property.label: viability index
Just the number.

Example entries and their recorded answers appear below.
compound	number
O=S(=O)(c1ccc(Cl)cc1)N1CCN(C(=S)NCc2ccco2)CC1	0.959
COc1cccc(C(=O)NC(c2ccc(Cl)cc2)c2cc(Cl)c3cccnc3c2O)c1 (stereo not given)	0.523

Record summary for C=CCSc1nnc2c(n1)[nH]c1ccc(OCC)cc12 : reported viability index = 0.656

Record summary for C[n+]1ccccc1C=Cc1cc(Br)ccc1O : reported viability index = 0.819

Record summary for CCOC(=O)C1=C(C)NC2=C(C(=O)CC(c3ccc(Cl)cc3)C2)C1c1ccc(Br)cc1 (stereo not given) : reported viability index = 0.725

---

- Test system: Plasmodium falciparum NF54 stage V gametocytes
- assay.notes: viability index relative to DMSO control (fraction); higher = less gametocyte killing
- condition.summary: 1.25 µM, incubation time: 72 h
Over roughly 3,600 compounds, “viability index relative to DMSO control” has its median near 0.81; the lowest 2% begin near 0.13. What follows is part of a selection rich in the lowest values, with near analogues and random picks from the rest.
Lab note: cut-off is 0.8. Strictly less in viability index is 1. Exactly 0.8 or more is 0.

Observe how each entry below is paired with its result.
compound	assigned.label
N=c1n(CCN2CCCCC2)c2ccccc2n1CC(O)COc1ccc(Cl)cc1 (centres undefined)	1
Cc1[nH]c2ccccc2c1C=Cc1cc[n+](C)cc1	0
Oc1c(C(Nc2ccccn2)c2ccc(Br)cc2)ccc2cccnc12 (centres undefined)	0

Please state whether viability index is below 0.8 for CCN(CC)Cc1cc(Nc2ccnc3cc(Cl)ccc23)ccc1O
0

Please state whether viability index is below 0.8 for O=C(CCCCCN1C(=O)c2cccc3cccc(c23)C1=O)NO
0

---

- Tested on: Plasmodium falciparum NF54 stage V gametocytes;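 note: Saponin-lysis sexual stage assay in serum-free medium: MitoTracker Red CMXRos staining plus saponin, high-content imaging, particle count per well divided by plate mean of DMSO wells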
- assay.notes: viability index relative to DMSO control (fraction); higher = less gametocyte killing
- condition.summary: 1.25 µM, incubation time: 72 h
In all, about 3,600 compounds were measured (“viability index relative to DMSO control”: median about 0.81, lowest 2% from about 0.13 on). Shown is part of a subset that was picked to be rich in the lowest values.
property.label: viability index
Just the number.

compound	property.label	number
COc1cc2c(cc1OC)C(COc1ccc(F)cc1)N(C(=O)c1ccc(OC(C)C)cc1)CC2 (centres undefined)	viability index	0.66
Cc1cccc(-c2nc3cc(NC(=S)NC(=O)c4ccc(Cl)cc4)ccc3o2)c1	viability index	0.808
CCCn1nc(Oc2nc(NCC)cc(OC)n2)ccc1=O	viability index	0.859

Summary line: O=C(Nc1ccc(-c2nc3ccc(NC(=O)c4ccc(Br)o4)cc3[nH]2)cc1)c1ccc(Br)o1 , Plasmodium falciparum NF54 stage V gametocytes, reported viability index = 1.1

Summary line: Cc1cc(N2CCN(C)CC2)nc2ccc(NC(=O)c3ccc(Br)o3)cc12 , Plasmodium falciparum NF54 stage V gametocytes, reported viability index = 0.924

Summary line: Cc1ccc(-c2nc3cc(NC(=O)c4ccc([N+](=O)[O-])o4)ccc3o2)cc1Br , Plasmodium falciparum NF54 stage V gametocytes, reported viability index = 0.0755

Summary line: COc1ccc(-c2c[n+](CC(=O)c3cccc(OC)c3)c3n2CCC3)cc1 , Plasmodium falciparum NF54 stage V gametocytes, reported viability index = 0.74

Summary line: O=C(Nc1ccc2oc(-c3ccc(I)cc3)nc2c1)c1ccc([N+](=O)[O-])o1 , Plasmodium falciparum NF54 stage V gametocytes, reported viability index = 0.0302

Summary line: CC(=O)N(C1=C(N(C)C)C(=O)c2ccccc2C1=O)c1cccc(Cl)c1 , Plasmodium falciparum NF54 stage V gametocytes, reported viability index = 0
